Just for reference, the supplement of paper PMC12645437 is where these values come from.

Experimental target: T1, CRBN, Q96SW2;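 also: pooled lentiviral library of zinc finger degron-EGFP fusions in mCherry-positive Jurkat cells, FACS-sorted after compound exposure, with degron abundance counted by next-generation sequencing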
T1 chain: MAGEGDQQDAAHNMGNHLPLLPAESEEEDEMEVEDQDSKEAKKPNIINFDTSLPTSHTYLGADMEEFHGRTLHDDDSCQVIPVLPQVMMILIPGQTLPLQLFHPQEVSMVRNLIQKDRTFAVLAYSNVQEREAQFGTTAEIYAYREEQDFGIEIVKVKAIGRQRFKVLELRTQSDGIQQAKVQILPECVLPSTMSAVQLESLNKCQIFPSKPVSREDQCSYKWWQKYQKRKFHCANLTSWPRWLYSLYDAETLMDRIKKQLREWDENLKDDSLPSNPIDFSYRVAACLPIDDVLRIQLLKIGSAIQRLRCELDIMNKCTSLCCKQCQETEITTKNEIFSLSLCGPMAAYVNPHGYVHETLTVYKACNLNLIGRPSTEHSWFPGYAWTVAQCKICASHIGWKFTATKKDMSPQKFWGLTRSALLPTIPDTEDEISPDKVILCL
Assay summary: log2 fold change of degron read counts, EGFP-low vs EGFP+ sorted cells (limma voom), compound-induced degradation; higher = more compound-induced degradation of the degron-EGFP fusion; degrons are variants of IKZF1/3 zinc finger 2; compound dose not given here
Conditions used: Jurkat; 18 h; compound: compound 19 (5-tert-butyl-thalidomide)
In all, about 8,300 sequences were measured (“log2 fold change of degron read counts, EGFP-low vs EGFP+ sorted cells (limma voom), compound-induced degradation”: median about -1.1, highest 2% from about 3.2 on). This is one part of a sample in which the highest values are shown more often than they occur.
Kindly state log2 fold change of degron read counts for each of the entries shown.
Write no unit; give the number alone.

### Prompt GET /values?readout=log2 fold change of degron read counts&item= FSCDVCGAIFTQKGNLLRHIKL [46F_47S_49D_50V_52G_53A_54I_55F_67L_, Q9UKT9]
### Response -0.277

### Prompt GET /values?readout=log2 fold change of degron read counts&item= FECDQCGALFTQKGNLLRHIKL [46F_47E_49D_50Q_52G_53A_54L_55F_67L_, Q9UKT9]
### Response -3.05

### Prompt GET /values?readout=log2 fold change of degron read counts&item= FYCEICGRTFTQKGNLLRHIKL [46F_47Y_49E_50I_52G_53R_54T_55F_67L_, Q9UKT9]
### Response 0.432

### Prompt GET /values?readout=log2 fold change of degron read counts&item= FFCEICGHMFTQKGNLLRHIKL [46F_47F_49E_50I_52G_53H_54M_55F_67L_, Q9UKT9]
### Response -1.68
